# studyTarget: C-C chemokine receptor type 7 (Homo sapiens)
# Sequence (P32248 whole entry): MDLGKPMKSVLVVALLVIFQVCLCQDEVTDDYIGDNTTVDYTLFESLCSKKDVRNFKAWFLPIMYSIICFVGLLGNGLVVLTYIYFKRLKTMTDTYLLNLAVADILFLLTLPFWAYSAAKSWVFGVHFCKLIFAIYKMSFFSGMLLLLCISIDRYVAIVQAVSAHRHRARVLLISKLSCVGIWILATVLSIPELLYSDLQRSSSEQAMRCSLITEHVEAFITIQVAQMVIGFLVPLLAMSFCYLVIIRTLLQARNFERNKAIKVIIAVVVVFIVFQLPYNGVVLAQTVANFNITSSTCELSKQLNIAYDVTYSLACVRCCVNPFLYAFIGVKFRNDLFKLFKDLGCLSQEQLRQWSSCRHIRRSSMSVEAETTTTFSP
# assayNotes: Antagonist activity at CCR7 in human CD4 cells by fluorescence based calcium mobilization assay
# Assay type: functional, cell-based, CD4+ve Th
quantityKind: IC50

The examples below pair each entry with its known result.
C[C@H](CO)Nc1nc(SCc2cccc(F)c2F)nc2nc(N)sc12 :: > 30 µM
Fc1cccc(CSc2nc(NCC3CC3)c3nn[nH]c3n2)c1F :: > 30 µM

Here is the next item to consider.
In plain terms, C[C@H](CO)Nc1nc(SCc2cccc(F)c2F)nc2cccnc12 has a documented IC50 of > 30 µM

###

# studyTarget: C-C chemokine receptor type 7 (Homo sapiens)
# assayNotes: Competitive binding affinity to CCR7 in human U87 cells preincubated for 15 mins followed by CCL19 AF647 addition measured after 30 mins by flow cytometric analysis
# Type: cell-based
quantityKind: pIC50
Scale explanation: pIC50 corresponds to minus log10 of a concentration expressed in moles per litre.

In plain terms, CCCCCCSc1nc(N[C@H](C)CO)c2nn[nH]c2n1 has a documented pIC50 of 5.75
